Target: T1, MHC class I allele A*0201 (bound via biotin to streptavidin-coated plate)
T1 construct: iTopia MHC class I monomer on the plate; placeholder peptide and b2M removed, then reconstituted with test peptide and fresh b2M; also called A2; HLA A2
Test: iTopia peptide binding assay
PARAMETER MEASURED: % of positive control peptide binding
Write your answer as a measured quantity: the number, then the unit.

**Q:** Item under review: RDVLAQLPS [5T4 9 mer peptide 114 RDVLAQLPS] . Reported % of positive control peptide binding?
**A:** 15%

**Q:** Record request: % of positive control peptide binding value, item RQLDLSHNP (also called Peptide No 73) [5T4 9 mer peptide 73 RQLDLSHNP]
**A:** 8%

**Q:** // query % of positive control peptide binding value for entry LDLSNNSLV (also called Peptide No 120) [5T4 9 mer peptide 120 LDLSNNSLV]
**A:** 42%

**Q:** What value of measured % of positive control peptide binding is listed for AFSGSNASV (also called Peptide No 81) [5T4 9 mer peptide 81 AFSGSNASV] ?
**A:** 55%

**Q:** Reported % of positive control peptide binding for PPEDERQNR (also called Peptide No 93) [5T4 9 mer peptide 93 PPEDERQNR] : what is it?
**A:** 2%

**Q:** What value of % of positive control peptide binding has been reported for the following binder? VSAPSPLVE (also called Peptide No 85) [5T4 9 mer peptide 85 VSAPSPLVE]
**A:** 13%

**Q:** Fill in the blank: the reported % of positive control peptide binding of VRNLFLTGN (also called Peptide No 47) [5T4 9 mer peptide 47 VRNLFLTGN] is ____.
**A:** 5%

**Q:** For the binder LPAYVRNLF (also called Peptide No 45) [5T4 9 mer peptide 45 LPAYVRNLF] , what % of positive control peptide binding is on record?
**A:** 14%
